Just for reference, a melting point compilation (Tetko et al.; mined from patent text by program, amines drawn as free bases though some values may be those of a salt) is where these values come from.

melting point listing for selected molecules.
MEASURED_ATTRIBUTE: melting point

• CC1=NC(C)(C)SC1=NO = 159 to 161 °C
• CCN(CC)CCn1sc2nc(-c3ccccc3)ncc2c1=O = 106 to 107 °C
• CCOC(=O)C(Cl)=Cc1cc(-n2ncc(C(F)(F)F)c(C)c2=O)ccc1Cl = 164 to 167 °C
• CNC(=O)N1CCC(C(c2ccc(F)cc2)N(CCc2ccccc2)C(=O)NC)CC1 (stereo not drawn) = 186 to 188 °C
• O=[N+]([O-])c1cccc(CO)c1I = 91 to 91.5 °C
• O=C(Nc1ccc(C(=O)N2Cc3cccn3Cc3ccccc32)cc1)c1cc(Cl)cc(Cl)c1Cl = 231 to 234 °C
• COc1ccc(C)c2c1C(C=O)C1CCCCC21 (stereo not drawn) = 92 to 93 °C
• COc1cc2c(cc1Br)CC(=O)NN=C2c1ccc([N+](=O)[O-])cc1 = 245 to 256 °C
• COC(=O)c1cc2c(nc1C(=O)OC)SCC2 = 102 to 104 °C
• O=C(OC1CCCCC1)c1ncn2c1[C@@H]1CCCN1C(=O)c1c-2ccc(F)c1Cl = 163 to 166 °C
• CC(C(=O)NN)c1cn[nH]c1-c1ccc(-c2ccccc2)cc1O (stereo not drawn) = 138 to 141 °C
• CC(C)OC(=O)N1CCC(c2nc3cc(-c4ccc(C(N)=O)cc4F)ccc3o2)CC1 = 194 to 197 °C
• Cc1nc2c(NC(=O)C(C)(C)C)c(C(O)C=Cc3ccccc3)ccn2c1C (stereo not drawn) = 194 to 195 °C
• COC(=O)[C@H](CSCc1ccccc1)NC(=O)Nc1n[nH]c(=S)s1 = 169 to 172 °C
• Cc1c(CO)cc([N+](=O)[O-])c(Cl)c1[N+](=O)[O-] = 158 to 160 °C
• CCOC(=O)C1C(=O)N(C)C(=S)N(C)C1=O = 90 to 93 °C
• CCCCCCCCCCSc1ccc(Br)cc1 = 37 to 39 °C
• CC(=O)OC1=C(C(=O)c2ccc(C)cc2)C(c2ccc(OC(F)(F)F)cc2)N(c2ccc(C)nn2)C1=O (stereo not drawn) = 165 to 166 °C
